These records show pIC50 for UniProt P12785.
// returns pIC50 (minus log10 of molar concentration), number only

Reference set, count: 3
# structure-smiles-string, pIC50
records = [
    ("O=c1[nH]c2cc(Cl)c([N+](=O)[O-])cc2c(O)c1-c1ccc(F)cc1F", 6.76),
    ("O=c1[nH]c2cc(Cl)c([N+](=O)[O-])cc2c(O)c1-c1ccc(Cl)cc1Cl", 6.35),
    ("O=c1[nH]c2cc(F)c([N+](=O)[O-])cc2c(O)c1-c1ccccc1", 7.30),
]

Then there is this compound:
Give the value of pIC50 reported for the following: O=c1[nH]c2c([N+](=O)[O-])cccc2c(O)c1-c1ccccc1
5.52

---

target-system: Fatty acid synthase (Homo sapiens)
Sequence (P49327 whole entry): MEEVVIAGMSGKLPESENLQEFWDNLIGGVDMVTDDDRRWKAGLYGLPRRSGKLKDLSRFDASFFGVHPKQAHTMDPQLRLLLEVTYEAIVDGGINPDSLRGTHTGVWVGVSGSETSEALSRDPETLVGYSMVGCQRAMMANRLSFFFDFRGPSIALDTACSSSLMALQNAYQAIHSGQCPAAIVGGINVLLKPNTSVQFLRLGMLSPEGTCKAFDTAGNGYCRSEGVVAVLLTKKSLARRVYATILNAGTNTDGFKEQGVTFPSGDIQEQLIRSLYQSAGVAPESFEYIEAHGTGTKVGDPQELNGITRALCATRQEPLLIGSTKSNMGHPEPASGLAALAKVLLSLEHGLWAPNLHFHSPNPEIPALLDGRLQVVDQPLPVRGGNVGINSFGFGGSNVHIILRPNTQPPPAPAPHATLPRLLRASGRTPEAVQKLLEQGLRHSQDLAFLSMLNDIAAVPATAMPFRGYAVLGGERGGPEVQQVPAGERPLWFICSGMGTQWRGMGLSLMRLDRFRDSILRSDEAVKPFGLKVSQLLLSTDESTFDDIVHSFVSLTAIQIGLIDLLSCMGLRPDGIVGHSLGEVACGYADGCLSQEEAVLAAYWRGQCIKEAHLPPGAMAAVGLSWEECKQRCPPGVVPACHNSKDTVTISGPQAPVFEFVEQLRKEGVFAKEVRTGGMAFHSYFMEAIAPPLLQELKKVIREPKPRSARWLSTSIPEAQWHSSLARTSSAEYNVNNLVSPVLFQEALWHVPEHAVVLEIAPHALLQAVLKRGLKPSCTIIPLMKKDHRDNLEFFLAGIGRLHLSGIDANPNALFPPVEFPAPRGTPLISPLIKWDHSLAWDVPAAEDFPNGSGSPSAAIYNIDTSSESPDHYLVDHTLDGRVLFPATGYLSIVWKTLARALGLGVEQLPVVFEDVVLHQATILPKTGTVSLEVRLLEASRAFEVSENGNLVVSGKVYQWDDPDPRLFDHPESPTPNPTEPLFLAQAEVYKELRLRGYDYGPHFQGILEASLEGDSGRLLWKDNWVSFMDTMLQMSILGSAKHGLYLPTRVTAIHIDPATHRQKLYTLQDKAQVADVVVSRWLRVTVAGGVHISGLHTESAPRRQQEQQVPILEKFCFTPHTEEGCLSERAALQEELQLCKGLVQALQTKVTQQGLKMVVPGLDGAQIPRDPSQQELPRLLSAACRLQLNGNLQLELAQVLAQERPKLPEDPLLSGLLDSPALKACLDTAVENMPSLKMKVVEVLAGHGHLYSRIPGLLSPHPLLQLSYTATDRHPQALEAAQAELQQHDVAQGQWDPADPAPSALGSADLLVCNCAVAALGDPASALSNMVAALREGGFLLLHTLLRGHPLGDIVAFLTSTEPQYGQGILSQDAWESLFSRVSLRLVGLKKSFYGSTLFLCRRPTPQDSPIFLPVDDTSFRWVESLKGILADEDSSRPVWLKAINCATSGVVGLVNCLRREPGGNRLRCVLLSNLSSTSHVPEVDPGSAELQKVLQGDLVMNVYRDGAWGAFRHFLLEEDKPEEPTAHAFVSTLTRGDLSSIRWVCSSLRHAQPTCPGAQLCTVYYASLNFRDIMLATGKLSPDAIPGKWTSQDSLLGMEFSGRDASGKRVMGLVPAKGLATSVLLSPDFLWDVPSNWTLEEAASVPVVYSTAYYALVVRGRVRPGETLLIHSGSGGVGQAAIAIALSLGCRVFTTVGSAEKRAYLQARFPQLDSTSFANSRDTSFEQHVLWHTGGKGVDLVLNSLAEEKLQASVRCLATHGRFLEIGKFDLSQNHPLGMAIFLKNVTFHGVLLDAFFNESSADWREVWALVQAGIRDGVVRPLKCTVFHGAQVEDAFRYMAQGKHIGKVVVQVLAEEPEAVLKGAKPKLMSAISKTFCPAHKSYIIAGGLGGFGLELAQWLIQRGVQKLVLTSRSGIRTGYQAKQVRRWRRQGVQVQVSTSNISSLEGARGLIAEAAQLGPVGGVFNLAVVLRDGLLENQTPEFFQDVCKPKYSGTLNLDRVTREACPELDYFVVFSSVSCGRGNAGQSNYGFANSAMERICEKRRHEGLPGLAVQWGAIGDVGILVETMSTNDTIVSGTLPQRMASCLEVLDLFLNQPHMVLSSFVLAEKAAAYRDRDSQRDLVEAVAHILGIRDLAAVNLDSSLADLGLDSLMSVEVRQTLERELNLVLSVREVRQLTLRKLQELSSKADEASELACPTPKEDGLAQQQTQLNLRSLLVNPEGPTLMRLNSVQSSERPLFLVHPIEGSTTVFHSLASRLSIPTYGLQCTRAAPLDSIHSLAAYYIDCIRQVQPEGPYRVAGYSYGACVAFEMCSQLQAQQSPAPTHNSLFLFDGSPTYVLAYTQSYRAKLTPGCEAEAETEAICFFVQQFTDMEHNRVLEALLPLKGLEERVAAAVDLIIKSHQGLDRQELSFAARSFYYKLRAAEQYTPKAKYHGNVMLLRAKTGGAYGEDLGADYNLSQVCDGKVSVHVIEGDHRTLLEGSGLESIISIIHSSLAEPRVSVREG
pIC50: −log10 of the molar value.
Please mark label 1 if the recorded pIC50 is equal to or greater than 7, and label 0 if it falls below.

# structure-smiles-string, cat
data = [
    ("N#Cc1cc2c(O)c(-c3cccc(-c4ccccc4)c3)c(=O)[nH]c2cc1Cl", "label 1"),
]

Textbook exercise: given the entry CS(=O)(=O)c1ccc2[nH]c(=O)c(-c3ccccc3)c(O)c2c1 , state whether its pIC50 is greater than or equal to 7.
label 0

I'd appreciate it if you could say whether N#Cc1cc2c(NCc3ccccc3)c(-c3ccccc3)c(=O)[nH]c2cc1Cl has pIC50 at least equal to 7.
label 0

Textbook exercise: given the entry N#Cc1cc2c(O)c(-c3cccc(-c4ccc(F)cc4)c3)c(=O)[nH]c2cc1Cl , state whether its pIC50 is greater than or equal to 7.
label 1

Hi, just wondering whether O=c1[nH]c2ccc(S(=O)(=O)C(F)(F)F)cc2c(O)c1-c1ccccc1 shows pIC50 of 7 or higher.
label 0

State whether the measured pIC50 reaches 7, counting equality as reaching it, for N#Cc1cc2c(C#N)c(-c3ccccc3)c(=O)[nH]c2cc1Cl
label 0

Would you say N#Cc1cc2c(N)c(-c3ccccc3)c(O)nc2cc1Cl shows pIC50 at minimum 7?
label 0

Decide: is the reported value of pIC50 for N#Cc1ccc2[nH]c(=O)c(-c3ccccc3)c(O)c2c1 equal to or greater than 7?
label 0

# bool: pIC50 of Cn1cc(-c2cccc(-c3c(O)c4cc(C#N)c(Cl)cc4[nH]c3=O)c2)cn1 >= 7
label 0

Could you verify whether the entry O=c1[nH]c2cc(Cl)c([N+](=O)[O-])cc2c(O)c1-c1ccccc1 shows pIC50 of no less than 7?
label 0

# bool: pIC50 of N#Cc1cc(Cl)c2[nH]c(=O)c(-c3ccccc3)c(O)c2c1 >= 7
label 0

---

target-system: Fatty acid synthase (Rattus norvegicus, UniProt P12785)
Sequence (P12785 whole entry): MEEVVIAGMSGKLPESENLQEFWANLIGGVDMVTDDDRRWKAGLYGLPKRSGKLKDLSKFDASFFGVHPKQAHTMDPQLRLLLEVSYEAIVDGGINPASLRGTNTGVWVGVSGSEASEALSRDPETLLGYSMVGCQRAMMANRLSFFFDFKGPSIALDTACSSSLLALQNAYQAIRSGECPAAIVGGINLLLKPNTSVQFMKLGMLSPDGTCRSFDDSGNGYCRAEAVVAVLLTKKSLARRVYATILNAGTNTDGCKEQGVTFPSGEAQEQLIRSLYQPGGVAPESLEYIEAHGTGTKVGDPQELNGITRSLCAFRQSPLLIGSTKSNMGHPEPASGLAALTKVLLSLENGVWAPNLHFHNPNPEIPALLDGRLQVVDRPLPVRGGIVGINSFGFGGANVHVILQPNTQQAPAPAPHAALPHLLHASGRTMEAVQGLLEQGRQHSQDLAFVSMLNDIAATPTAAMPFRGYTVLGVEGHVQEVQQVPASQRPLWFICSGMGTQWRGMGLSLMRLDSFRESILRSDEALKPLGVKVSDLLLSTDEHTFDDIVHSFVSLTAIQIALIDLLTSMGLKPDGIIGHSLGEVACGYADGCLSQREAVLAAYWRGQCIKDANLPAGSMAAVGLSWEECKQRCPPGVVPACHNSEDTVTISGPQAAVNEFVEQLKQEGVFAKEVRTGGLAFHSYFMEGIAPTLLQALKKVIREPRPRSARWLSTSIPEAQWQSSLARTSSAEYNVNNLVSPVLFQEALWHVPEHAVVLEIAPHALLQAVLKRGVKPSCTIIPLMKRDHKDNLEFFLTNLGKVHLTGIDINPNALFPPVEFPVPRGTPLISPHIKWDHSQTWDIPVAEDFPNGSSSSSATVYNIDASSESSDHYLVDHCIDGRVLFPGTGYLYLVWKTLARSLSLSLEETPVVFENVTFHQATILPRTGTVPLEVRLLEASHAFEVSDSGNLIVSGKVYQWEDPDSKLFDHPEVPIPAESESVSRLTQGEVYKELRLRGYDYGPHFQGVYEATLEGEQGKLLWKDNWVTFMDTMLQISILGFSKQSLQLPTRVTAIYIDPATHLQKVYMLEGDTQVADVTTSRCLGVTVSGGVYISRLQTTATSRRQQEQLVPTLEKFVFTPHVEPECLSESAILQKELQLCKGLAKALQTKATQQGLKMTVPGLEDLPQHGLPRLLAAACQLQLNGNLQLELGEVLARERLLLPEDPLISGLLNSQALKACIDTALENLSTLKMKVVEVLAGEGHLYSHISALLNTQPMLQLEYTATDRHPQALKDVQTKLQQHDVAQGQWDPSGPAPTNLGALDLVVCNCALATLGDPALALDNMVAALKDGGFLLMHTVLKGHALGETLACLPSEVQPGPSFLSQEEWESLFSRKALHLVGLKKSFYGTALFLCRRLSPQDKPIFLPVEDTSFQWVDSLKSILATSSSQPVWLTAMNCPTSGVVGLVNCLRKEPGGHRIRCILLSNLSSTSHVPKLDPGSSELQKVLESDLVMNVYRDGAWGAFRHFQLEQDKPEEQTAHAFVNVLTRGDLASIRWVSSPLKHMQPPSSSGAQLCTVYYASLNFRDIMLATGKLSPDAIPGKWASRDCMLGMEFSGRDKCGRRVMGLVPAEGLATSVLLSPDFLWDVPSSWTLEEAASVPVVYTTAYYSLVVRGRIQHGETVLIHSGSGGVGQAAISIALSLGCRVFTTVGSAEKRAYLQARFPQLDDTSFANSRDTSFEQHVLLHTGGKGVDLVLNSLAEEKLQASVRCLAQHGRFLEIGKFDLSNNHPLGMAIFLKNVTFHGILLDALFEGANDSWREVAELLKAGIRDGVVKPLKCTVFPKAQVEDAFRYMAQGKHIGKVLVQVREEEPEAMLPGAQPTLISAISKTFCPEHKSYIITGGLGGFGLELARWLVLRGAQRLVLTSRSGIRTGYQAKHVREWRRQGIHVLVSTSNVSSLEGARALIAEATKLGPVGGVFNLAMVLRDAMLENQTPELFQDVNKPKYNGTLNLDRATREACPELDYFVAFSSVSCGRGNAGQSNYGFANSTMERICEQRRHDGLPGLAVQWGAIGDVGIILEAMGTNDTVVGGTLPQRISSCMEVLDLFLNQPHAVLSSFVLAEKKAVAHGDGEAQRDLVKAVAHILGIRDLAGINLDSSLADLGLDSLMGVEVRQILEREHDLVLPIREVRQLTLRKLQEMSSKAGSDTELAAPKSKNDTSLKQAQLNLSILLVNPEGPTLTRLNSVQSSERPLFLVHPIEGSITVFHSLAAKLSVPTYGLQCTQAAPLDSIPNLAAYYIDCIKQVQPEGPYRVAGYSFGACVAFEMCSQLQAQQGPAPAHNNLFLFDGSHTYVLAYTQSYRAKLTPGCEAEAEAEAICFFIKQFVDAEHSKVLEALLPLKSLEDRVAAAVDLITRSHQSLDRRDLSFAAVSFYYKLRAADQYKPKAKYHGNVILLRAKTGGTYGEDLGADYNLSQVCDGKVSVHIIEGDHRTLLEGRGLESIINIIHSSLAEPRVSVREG
measurement-protocol: Inhibition of rat FAS
assay-metric: IC50 (nM)
Give just the numeric value; nM need not be written.

Answered examples (2):
# structure-smiles-string, IC50 / nM
measured = [
    ("O=c1[nH]c2cc(Cl)c([N+](=O)[O-])cc2c(O)c1-c1cc(Cl)cc(Cl)c1", 134),
    ("O=c1[nH]c2cc(Cl)c([N+](=O)[O-])cc2c(O)c1-c1cccs1", 700),
]

Output measured IC50 for this item: O=c1[nH]c2cc(Cl)c([N+](=O)[O-])cc2c(O)c1-c1ccccc1
73
